Target: vasopressin-stimulated adenylate cyclase, Kidney (V2)
Assay: Inhibition of vasopressin-stimulated adenylate cyclase in kidney medulla (V2 antagonism)
Details: conversion of ATP to cAMP, mean, n = 2, read-out: IC50 Values, AVP-stimulated Ad. Cyclase, Kidney (V2)
measure-name: pIC50
A value of pIC50 is the negative decimal logarithm of a concentration given in moles per litre.

Q: If you can, please state the reported pIC50 value of [C-]#[N+]C12C(C(C(=C)C)CC(Cl)C1(C)C=C)C21C(=O)Nc2ccccc21 (stereo not shown) .
Ans: 4.35
